Tested on: Streptococcus pneumoniae
procedure-summary: Antibacterial activity against penicillin-resistant Streptococcus pneumoniae ATCC 51916 assessed as bacterial growth inhibition measured after 20 hrs by broth dilution method
Type: functional
The following molecules are shown together with reported MIC values.
parameter-measured: MIC

INSERT INTO measurements (item_smiles, parameter_measured, value) VALUES
  ('C=C[C@]1(C)C[C@@H](OC(=O)CSc2cc(=O)oc3ccc(OC)cc23)[C@]2(C)[C@H](C)CC[C@]3(CCC(=O)[C@H]32)[C@@H](C)[C@@H]1O', 'MIC', '0.125 µg/mL'),
  ('C=C[C@]1(C)C[C@@H](OC(=O)CSc2cc(=O)oc3ccccc23)[C@]2(C)[C@H](C)CC[C@]3(CCC(=O)[C@H]32)[C@@H](C)[C@@H]1O', 'MIC', '0.125 µg/mL'),
  ('C=C[C@]1(C)C[C@@H](OC(=O)CSc2cc(=O)oc3ccc(Cl)cc23)[C@]2(C)[C@H](C)CC[C@]3(CCC(=O)[C@H]32)[C@@H](C)[C@@H]1O', 'MIC', '0.125 µg/mL');

====

The following compounds are shown together with reported Ratio values.
System: Staphylococcus epidermidis
procedure-summary: Ratio of MBC to MIC against methicillin-resistant Staphylococcus epidermidis clinical isolate 202409139
Assay type: functional
parameter-measured: Ratio

INSERT INTO results (compound, value_comparator, value) VALUES
  ('C=C[C@]1(C)C[C@@H](OC(=O)CSc2cc(=O)oc3cc(OC)ccc23)[C@]2(C)[C@H](C)CC[C@]3(CCC(=O)[C@H]32)[C@@H](C)[C@@H]1O', '=', 2),
  ('C=C[C@]1(C)C[C@@H](OC(=O)CO)[C@]2(C)[C@H](C)CC[C@]3(CCC(=O)[C@H]32)[C@@H](C)[C@@H]1O [PLEUROMULIN]', '=', 4),
  ('C=C[C@]1(C)C[C@@H](OC(=O)CSc2cc(=O)oc3cc(Br)ccc23)[C@]2(C)[C@H](C)CC[C@]3(CCC(=O)[C@H]32)[C@@H](C)[C@@H]1O', '>', 4),
  ('C=C[C@]1(C)C[C@@H](OC(=O)CSc2cc(=O)oc3ccc(F)cc23)[C@]2(C)[C@H](C)CC[C@]3(CCC(=O)[C@H]32)[C@@H](C)[C@@H]1O', '=', 2);

====

Test system: Streptococcus pneumoniae
procedure-summary: Ratio of MBC to MIC against penicillin-resistant Streptococcus pneumoniae ATCC 51916
Format: functional
parameter-measured: Ratio

INSERT INTO assay_data (item_smiles, parameter_measured, value) VALUES
  ('C=C[C@]1(C)C[C@@H](OC(=O)CSCCOc2cc(=O)oc3cc(OC)ccc23)[C@]2(C)[C@H](C)CC[C@]3(CCC(=O)[C@H]32)[C@@H](C)[C@@H]1O', 'Ratio', 2),
  ('C=C[C@]1(C)C[C@@H](OC(=O)CSCCOc2cc(=O)oc3ccc(Br)cc23)[C@]2(C)[C@H](C)CC[C@]3(CCC(=O)[C@H]32)[C@@H](C)[C@@H]1O', 'Ratio', 4),
  ('C=C[C@]1(C)C[C@@H](OC(=O)CSCCOc2cc(=O)oc3cc(Cl)ccc23)[C@]2(C)[C@H](C)CC[C@]3(CCC(=O)[C@H]32)[C@@H](C)[C@@H]1O', 'Ratio', 2);

====

Tested on: Streptococcus pneumoniae
procedure-summary: Antibacterial activity against penicillin-resistant Streptococcus pneumoniae ATCC 51916 assessed as bacterial growth inhibition measured after 20 hrs by broth dilution method
Format: functional
parameter-measured: MIC

INSERT INTO assay_data (compound, target, value) VALUES
  ('C=C[C@]1(C)C[C@@H](OC(=O)CO)[C@]2(C)[C@H](C)CC[C@]3(CCC(=O)[C@H]32)[C@@H](C)[C@@H]1O [PLEUROMULIN]', 'Streptococcus pneumoniae', '4 mg/L'),
  ('C=C[C@]1(C)C[C@@H](OC(=O)CSc2cc(=O)oc3cc(Br)ccc23)[C@]2(C)[C@H](C)CC[C@]3(CCC(=O)[C@H]32)[C@@H](C)[C@@H]1O', 'Streptococcus pneumoniae', '0.125 mg/L'),
  ('C=C[C@]1(C)C[C@@H](OC(=O)CSc2cc(=O)oc3cc(F)ccc23)[C@]2(C)[C@H](C)CC[C@]3(CCC(=O)[C@H]32)[C@@H](C)[C@@H]1O', 'Streptococcus pneumoniae', '0.125 mg/L'),
  ('C=C[C@]1(C)C[C@@H](OC(=O)CSc2cc(=O)oc3ccc(F)cc23)[C@]2(C)[C@H](C)CC[C@]3(CCC(=O)[C@H]32)[C@@H](C)[C@@H]1O', 'Streptococcus pneumoniae', '0.125 mg/L'),
  ('C=C[C@]1(C)C[C@@H](OC(=O)CSCCOc2cc(=O)oc3ccc([N+](=O)[O-])cc23)[C@]2(C)[C@H](C)CC[C@]3(CCC(=O)[C@H]32)[C@@H](C)[C@@H]1O', 'Streptococcus pneumoniae', '0.063 mg/L'),
  ('C=C[C@]1(C)C[C@@H](OC(=O)CSCCOc2cc(=O)oc3ccc(F)cc23)[C@]2(C)[C@H](C)CC[C@]3(CCC(=O)[C@H]32)[C@@H](C)[C@@H]1O', 'Streptococcus pneumoniae', '1 mg/L'),
  ('C=C[C@]1(C)C[C@@H](OC(=O)CSCCOc2cc(=O)oc3cc(OC)ccc23)[C@]2(C)[C@H](C)CC[C@]3(CCC(=O)[C@H]32)[C@@H](C)[C@@H]1O', 'Streptococcus pneumoniae', '0.063 mg/L'),
  ('C=C[C@]1(C)C[C@@H](OC(=O)CSCCN(CC)CC)[C@]2(C)[C@H](C)CC[C@]3(CCC(=O)[C@H]32)[C@@H](C)[C@@H]1O [TIAMULIN]', 'Streptococcus pneumoniae', '0.125 mg/L'),
  ('C=C[C@]1(C)C[C@@H](OC(=O)CSc2cc(=O)oc3ccc(C)cc23)[C@]2(C)[C@H](C)CC[C@]3(CCC(=O)[C@H]32)[C@@H](C)[C@@H]1O', 'Streptococcus pneumoniae', '0.125 mg/L'),
  ('C=C[C@]1(C)C[C@@H](OC(=O)CSCCOc2cc(=O)oc3ccccc23)[C@]2(C)[C@H](C)CC[C@]3(CCC(=O)[C@H]32)[C@@H](C)[C@@H]1O', 'Streptococcus pneumoniae', '0.25 mg/L'),
  ('C=C[C@]1(C)C[C@@H](OC(=O)CSc2cc(=O)oc3cc(Cl)ccc23)[C@]2(C)[C@H](C)CC[C@]3(CCC(=O)[C@H]32)[C@@H](C)[C@@H]1O', 'Streptococcus pneumoniae', '0.125 mg/L');

====

Tested on: Staphylococcus epidermidis
procedure-summary: Antibacterial activity against methicillin-resistant Staphylococcus epidermidis clinical isolate 202409139 assessed as bacterial growth inhibition measured after 20 hrs by broth dilution method
Format: functional
parameter-measured: MIC

INSERT INTO assay_data (item_smiles, parameter_measured, value) VALUES
  ('C=C[C@]1(C)C[C@@H](OC(=O)CO)[C@]2(C)[C@H](C)CC[C@]3(CCC(=O)[C@H]32)[C@@H](C)[C@@H]1O', 'MIC', '0.25 µg/mL'),
  ('C=C[C@]1(C)C[C@@H](OC(=O)CSc2cc(=O)oc3cc(Br)ccc23)[C@]2(C)[C@H](C)CC[C@]3(CCC(=O)[C@H]32)[C@@H](C)[C@@H]1O', 'MIC', '0.125 µg/mL'),
  ('C=C[C@]1(C)C[C@@H](OC(=O)CSc2cc(=O)oc3cc(OC)ccc23)[C@]2(C)[C@H](C)CC[C@]3(CCC(=O)[C@H]32)[C@@H](C)[C@@H]1O', 'MIC', '0.031 µg/mL'),
  ('C=C[C@]1(C)C[C@@H](OC(=O)CSc2cc(=O)oc3ccccc23)[C@]2(C)[C@H](C)CC[C@]3(CCC(=O)[C@H]32)[C@@H](C)[C@@H]1O', 'MIC', '0.125 µg/mL'),
  ('C=C[C@]1(C)C[C@@H](OC(=O)CSCCOc2cc(=O)oc3ccccc23)[C@]2(C)[C@H](C)CC[C@]3(CCC(=O)[C@H]32)[C@@H](C)[C@@H]1O', 'MIC', '0.125 µg/mL'),
  ('C=C[C@]1(C)C[C@@H](OC(=O)CSCCN(CC)CC)[C@]2(C)[C@H](C)CC[C@]3(CCC(=O)[C@H]32)[C@@H](C)[C@@H]1O', 'MIC', '1 µg/mL');

====

Tested on: Streptococcus pneumoniae
procedure-summary: Ratio of MBC to MIC against penicillin-resistant Streptococcus pneumoniae ATCC 51916
Format: functional
The following compounds are shown together with reported Ratio values.
parameter-measured: Ratio

INSERT INTO measurements (item_smiles, target, value_comparator, value) VALUES
  ('C=C[C@]1(C)C[C@@H](OC(=O)CSCCOc2cc(=O)oc3ccc([N+](=O)[O-])cc23)[C@]2(C)[C@H](C)CC[C@]3(CCC(=O)[C@H]32)[C@@H](C)[C@@H]1O', 'Streptococcus pneumoniae', '>', 4),
  ('C=C[C@]1(C)C[C@@H](OC(=O)CO)[C@]2(C)[C@H](C)CC[C@]3(CCC(=O)[C@H]32)[C@@H](C)[C@@H]1O', 'Streptococcus pneumoniae', '=', 4),
  ('C=C[C@]1(C)C[C@@H](OC(=O)CSc2cc(=O)oc3ccc(Cl)cc23)[C@]2(C)[C@H](C)CC[C@]3(CCC(=O)[C@H]32)[C@@H](C)[C@@H]1O', 'Streptococcus pneumoniae', '=', 4);

Provenance of the data: ChEMBL document CHEMBL6078666
